Cited source: PubChem BioAssay (EPA / NIEHS)

# Read-out: Urokinase-type plasminogen activator receptor (uPAR), PLAUR (gene 5329)
# Procedure Summary: BSK_CASM3C_uPAR: BioMAP Diversity Plus: CASM3C Assay for Urokinase-type plasminogen activator receptor (uPAR) Biomarker Activity (AID 2283054);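 note: cell-surface uPAR protein level quantified by ELISA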
# Condition Parameters: primary human coronary artery smooth muscle cells; actives raise or lower the signal
The source made the active and inactive calls. Rule for the calls: active = hit-call score of the fitted dose curve at least 0.9, where 1 is the maximum; inactive = score below 0.9.
Mark one answer only. Choices: active, inactive

Sample answers from the record:
What is the recorded call for this molecule in the test? Nc1ccc([N+](=O)[O-])cc1
inactive

What is the recorded call for this molecule in the test? COC(=O)c1ccccc1N
inactive

What is the recorded call for this molecule in the test? CCCCCOC(=O)c1ccccc1C(=O)OCCCCC
inactive

What is the recorded call for this molecule in the test? Clc1ccc(C(c2ccc(Cl)cc2)C(Cl)(Cl)Cl)cc1
active

What is the recorded call for this molecule in the test? Cc1ccc(N=C=O)cc1N=C=O
inactive

Further cases:
What is the recorded call for this molecule in the test? CCOc1cccc(C2(N3CCN(c4ccccc4)CC3)CCC(C)CC2)c1 (configuration not stated)
inactive

What is the recorded call for this molecule in the test? C[N+](C)(C)CC1CO1 (configuration not stated)
inactive
